Target: Lysine-specific demethylase 4D (Homo sapiens, UniProt Q6B0I6)
Sequence (Q6B0I6 whole entry): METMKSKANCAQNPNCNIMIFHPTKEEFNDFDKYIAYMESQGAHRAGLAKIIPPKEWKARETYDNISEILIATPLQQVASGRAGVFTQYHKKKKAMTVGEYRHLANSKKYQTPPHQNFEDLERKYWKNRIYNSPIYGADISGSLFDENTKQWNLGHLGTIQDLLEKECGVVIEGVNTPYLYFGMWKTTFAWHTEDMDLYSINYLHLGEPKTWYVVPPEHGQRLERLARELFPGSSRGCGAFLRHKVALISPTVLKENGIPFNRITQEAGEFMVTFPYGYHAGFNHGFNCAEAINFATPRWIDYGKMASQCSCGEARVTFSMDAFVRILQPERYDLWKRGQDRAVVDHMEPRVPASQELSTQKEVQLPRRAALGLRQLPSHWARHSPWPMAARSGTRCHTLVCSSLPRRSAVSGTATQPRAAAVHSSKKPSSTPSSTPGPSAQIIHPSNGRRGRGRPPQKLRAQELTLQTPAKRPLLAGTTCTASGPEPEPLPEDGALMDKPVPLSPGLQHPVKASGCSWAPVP
QUANTITY: IC50 (µM)

Worked examples, 5 molecules total:
1) COc1ccc(CNC(=S)Nc2ccc3nc(-c4ccco4)c(-c4ccco4)nc3c2)cc1: 3.12
2) Cc1ccc(-c2nc3ccc(NC(=S)N4CCCCCC4)cc3nc2-c2ccc(C)o2)o1: 0.62
3) O=C(Nc1ccccc1)Nc1ccc2nc(-c3ccco3)c(-c3ccco3)nc2c1: 3.7
4) Fc1ccc(CNC(=S)Nc2ccc3nc(-c4ccco4)c(-c4ccco4)nc3c2)cc1: 3.23
5) S=C(Nc1ccc2nc(-c3ccco3)c(-c3ccco3)nc2c1)c1ccccc1: 25.6

A: S=C(Nc1ccc2nc(-c3ccco3)c(-c3ccco3)nc2c1)Nc1ccccn1
B: O=C(Nc1ccccc1)C(=S)Nc1ccc2nc(-c3ccco3)c(-c3ccco3)nc2c1
Prompt: Returns: the argument ( A or B ) having the larger IC50. // output: label of the selected item
Completion: B

====

Listing of entries alongside the reported inhibition at 8 µM.
System: Huh-7
Test: cells
Conditions: Homo sapiens, Huh-7, 48 h, read-out: INH
Description: Anticancer activity against human Huh-7 cells assessed as inhibition of cell viability at 8 uM incubated for 48 hrs by CCK-8 assay (Rvb = 0 +/- 0.88 %)
State just the number; it will be interpreted in %.

Worked examples, 2 compounds total:
1) Fc1ccc(CNC(=S)Nc2ccc3nc(-c4ccco4)c(-c4ccco4)nc3c2)cc1: 33
2) S=C(Nc1ccc2nc(-c3ccc(Br)s3)c(-c3ccc(Br)s3)nc2c1)N1CCCCCC1: 41.5

Prompt: Using known records, supply inhibition at 8 µM for S=C(NCc1ccccn1)Nc1ccc2nc(-c3ccc(Br)o3)c(-c3ccc(Br)o3)nc2c1
Completion: 38.1

Prompt: Using known records, supply inhibition at 8 µM for O=C(Nc1ccccc1)C(=S)Nc1ccc2nc(-c3ccco3)c(-c3ccco3)nc2c1
Completion: 19.7

====

Tested on: Huh-7
Assay: cells
Conditions: Homo sapiens, Huh-7, 48 h, read-out: INH
Listing of entries alongside the reported inhibition at 8 µM.
State just the number; it will be interpreted in %.

1) S=C(Nc1ccc2nc(-c3ccccn3)c(-c3ccccn3)nc2c1)N1CCCCCC1: 39.1
2) S=C(Nc1ccccc1)Nc1ccc2nc(-c3ccco3)c(-c3ccco3)nc2c1: 25.6
3) Cc1ccc(-c2nc3ccc(NC(=S)N4CCCCCC4)cc3nc2-c2ccc(C)o2)o1: 55.5

Prompt: State recorded inhibition at 8 µM with Huh-7, entry Fc1ccc(CNC(=S)Nc2ccc3nc(-c4ccccn4)c(-c4ccccn4)nc3c2)cc1 , no comment.
Completion: 37.8
